Kindly supply the reported AC50 values for the records listed here.
- TARGET OR TEST SYSTEM: UniProtKB P35348
- Sequence (P35348 whole entry): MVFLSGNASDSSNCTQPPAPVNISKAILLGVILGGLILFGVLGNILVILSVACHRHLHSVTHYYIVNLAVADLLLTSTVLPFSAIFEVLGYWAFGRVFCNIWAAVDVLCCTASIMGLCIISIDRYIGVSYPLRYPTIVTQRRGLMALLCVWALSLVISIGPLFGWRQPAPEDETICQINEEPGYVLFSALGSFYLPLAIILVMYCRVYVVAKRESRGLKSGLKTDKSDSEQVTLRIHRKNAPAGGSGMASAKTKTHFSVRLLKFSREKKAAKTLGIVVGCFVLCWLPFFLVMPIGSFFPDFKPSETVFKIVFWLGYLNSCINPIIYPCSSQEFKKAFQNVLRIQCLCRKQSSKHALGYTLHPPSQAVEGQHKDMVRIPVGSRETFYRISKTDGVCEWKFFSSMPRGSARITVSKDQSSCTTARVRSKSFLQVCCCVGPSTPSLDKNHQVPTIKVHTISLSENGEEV
- Format: functional, cell-based

Respectfully, I request AC50 for each entry included below.
1. CN(C)CCN(Cc1ccc(Cl)cc1)c1ccccn1
2. O=C1[C@H]2CCCC[C@H]2C(=O)N1CCCCN1CCN(c2nsc3ccccc23)CC1
3. Cc1onc(-c2c(Cl)cccc2Cl)c1C(=O)N[C@@H]1C(=O)N2[C@@H]1SC(C)(C)[C@@H]2C(=O)O

["6.52 µM", "0.003 µM", "> 30 µM"]

Respectfully, I request AC50 for each entry included below.
1. CC(C)(C)C(=O)NCCCC(=O)O
2. C[C@@H](O)[C@H]1C(=O)N2C(C(=O)O)=C([C@H]3CCCO3)S[C@H]12
3. CN1CCC[C@@H]1Cc1c[nH]c2ccc(CCS(=O)(=O)c3ccccc3)cc12

1: > 30 µM; 2: > 30 µM; 3: > 30 µM

Respectfully, I request AC50 for each entry included below.
1. CCC[C@@H]1C[C@@H](C(=O)N[C@@H]([C@H]2O[C@H](SC)[C@H](OP(=O)(O)O)[C@@H](O)[C@H]2O)[C@H](C)Cl)N(C)C1 [CLINDAMYCIN PHOSPHATE]
2. CCOc1ccc2ccccc2c1C(=O)N[C@@H]1C(=O)N2[C@@H]1SC(C)(C)[C@@H]2C(=O)O

1: > 30 µM; 2: > 30 µM

====

Quick record: AC50, Sodium-dependent dopamine transporter (Homo sapiens, UniProt Q01959).

Complete the entry with AC50 for CC(C)(C)NCC(O)c1cc(Cl)c(N)c(Cl)c1 (stereo not given)
27.1 µM

Complete the entry with AC50 for CCCN(CC)C(CC)C(=O)Nc1c(C)cccc1C (stereo not given)
> 30 µM

Complete the entry with AC50 for `CCn1cc(C(=O)O)c(=O)c2cc(F)c(N3CCNCC3)nc21`
> 10 µM

Respectfully, I request AC50 for each entry included below.
1. CCCCC[C@H](O)/C=C/[C@H]1[C@H](O)CC(=O)[C@@H]1C/C=C\CCCC(=O)O
2. CCCNC(C)C(=O)Nc1ccccc1C (stereo not given)

1: > 30 µM; 2: > 30 µM

====

- TARGET OR TEST SYSTEM: Prostaglandin G/H synthase 1 (Rattus norvegicus); further: assay procedure not described here
- Sequence (Q63921 whole entry): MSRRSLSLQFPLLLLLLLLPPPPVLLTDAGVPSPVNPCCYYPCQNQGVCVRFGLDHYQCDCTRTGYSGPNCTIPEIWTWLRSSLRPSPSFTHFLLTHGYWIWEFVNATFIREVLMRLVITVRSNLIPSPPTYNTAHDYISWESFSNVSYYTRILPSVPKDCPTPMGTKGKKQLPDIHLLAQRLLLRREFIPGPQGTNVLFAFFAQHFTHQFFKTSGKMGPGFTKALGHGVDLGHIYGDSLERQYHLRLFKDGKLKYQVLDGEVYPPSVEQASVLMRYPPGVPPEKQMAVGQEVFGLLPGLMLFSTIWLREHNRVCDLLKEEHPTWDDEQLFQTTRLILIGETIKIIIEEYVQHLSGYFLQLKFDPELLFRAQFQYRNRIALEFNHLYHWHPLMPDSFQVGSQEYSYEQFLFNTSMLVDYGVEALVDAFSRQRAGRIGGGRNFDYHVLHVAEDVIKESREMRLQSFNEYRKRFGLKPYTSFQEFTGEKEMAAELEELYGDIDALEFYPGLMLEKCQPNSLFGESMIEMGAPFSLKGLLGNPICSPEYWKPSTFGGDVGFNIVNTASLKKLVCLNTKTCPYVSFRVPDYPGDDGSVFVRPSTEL
- Assay type: functional
ATTRIBUTE MEASURED: AC50

Complete the entry with AC50 for `CCSc1ccc2c(c1)N(CCCN1CCN(C)CC1)c1ccccc1S2`
> 30 µM

Complete the entry with AC50 for `CNC(=O)c1cc(Oc2ccc(NC(=O)Nc3ccc(Cl)c(C(F)(F)F)c3)c(F)c2)ccn1`
> 30 µM

Complete the entry with AC50 for Nc1nc2c(c(=O)[nH]1)N(C=O)C(CNc1ccc(C(=O)N[C@@H](CCC(=O)O)C(=O)O)cc1)CN2 (stereo not given in full)
> 30 µM

Respectfully, I request AC50 for each entry included below.
1. CCn1cc(C(=O)O)c(=O)c2cc(F)c(N3CCNCC3)nc21
2. C=C[C@@]1(C)CC(=O)[C@]2(O)[C@@]3(C)[C@@H](O)CCC(C)(C)[C@@H]3[C@H](OC(=O)CCN(C)C)[C@H](OC(C)=O)[C@@]2(C)O1
3. CNCCC=C1c2ccccc2CCc2ccccc21
4. CCCCNc1ccc(C(=O)OCCN(C)C)cc1
5. C#C[C@]1(O)CC[C@H]2[C@@H]3CCc4cc(OC)ccc4[C@H]3CC[C@@]21C
6. COc1cccc(N(C)C(=S)Oc2ccc3c(c2)CCCC3)n1 [LIRANAFTATE]
7. NC(=O)c1ncn([C@@H]2O[C@H](CO)[C@@H](O)[C@H]2O)n1
8. CC[C@H]1OC(=O)[C@H](C)[C@@H](O[C@H]2C[C@@](C)(OC)[C@@H](O)[C@H](C)O2)[C@H](C)[C@@H](O[C@@H]2O[C@H](C)C[C@H](N(C)C)[C@H]2O)[C@](C)(OC)C[C@@H](C)C(=O)[C@H](C)[C@@H](O)[C@]1(C)O

1. > 30 µM
2. > 30 µM
3. > 30 µM
4. > 30 µM
5. > 10 µM
6. > 30 µM
7. > 10 µM
8. > 30 µM

Respectfully, I request AC50 for each entry included below.
1. Cc1cc2nc3c(=O)[nH]c(=O)nc-3n(C[C@H](O)[C@H](O)[C@H](O)COP(=O)(O)O)c2cc1C [RIBOFLAVIN 5'-PHOSPHATE]
2. CCCNC(C)C(=O)Nc1ccccc1C (stereo not given)
3. CCn1cc(C(=O)O)c(=O)c2cc(F)c(N3CCN(C)CC3)cc21
4. [H]/N=C(/N)N[C@H]1[C@H](O)[C@@H](O)[C@H](O[C@@H]2O[C@@H](C)[C@](O)(C=O)[C@H]2O[C@@H]2O[C@@H](CO)[C@H](O)[C@@H](O)[C@@H]2NC)[C@@H](N/C(N)=N\[H])[C@@H]1O

0.9 µM
> 30 µM
> 30 µM
> 30 µM

====

- TARGET OR TEST SYSTEM: Gamma-aminobutyric acid receptor subunit alpha-1 (Rattus norvegicus, UniProt P62813); further: assay procedure not described here
- Sequence (P62813 whole entry): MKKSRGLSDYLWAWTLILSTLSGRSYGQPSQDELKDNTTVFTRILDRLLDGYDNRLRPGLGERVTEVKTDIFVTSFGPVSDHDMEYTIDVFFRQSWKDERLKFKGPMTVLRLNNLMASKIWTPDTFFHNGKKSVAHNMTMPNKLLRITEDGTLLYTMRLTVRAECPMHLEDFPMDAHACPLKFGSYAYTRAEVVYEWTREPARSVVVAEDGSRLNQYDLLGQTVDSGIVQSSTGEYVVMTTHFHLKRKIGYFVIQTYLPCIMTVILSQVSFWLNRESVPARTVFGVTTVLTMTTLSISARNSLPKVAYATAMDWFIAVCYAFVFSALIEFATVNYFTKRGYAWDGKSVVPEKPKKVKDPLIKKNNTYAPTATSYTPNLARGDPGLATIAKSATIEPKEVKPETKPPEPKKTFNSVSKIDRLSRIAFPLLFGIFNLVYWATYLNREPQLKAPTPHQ
- Format: functional
Kindly supply the reported AC50 values for the records listed here.

Below, 3 compounds whose answers are already recorded.
Complete the entry with AC50 for `N=C(N)c1ccc2cc(OC(=O)c3ccc(N=C(N)N)cc3)ccc2c1`
> 30 µM

Complete the entry with AC50 for Nc1nc2c(c(=O)[nH]1)N(C=O)C(CNc1ccc(C(=O)N[C@@H](CCC(=O)O)C(=O)O)cc1)CN2 (some centres undefined)
> 30 µM

Complete the entry with AC50 for `CCCCCCNC(=O)n1cc(F)c(=O)[nH]c1=O`
> 30 µM

Respectfully, I request AC50 for each entry included below.
1. COc1ccc(Cc2nccc3cc(OC)c(OC)cc23)cc1OC
2. C=C[C@@]1(C)CC(=O)[C@]2(O)[C@@]3(C)[C@@H](O)CCC(C)(C)[C@@H]3[C@H](OC(=O)CCN(C)C)[C@H](OC(C)=O)[C@@]2(C)O1
3. CN1CCN(c2c(F)cc3c(=O)c(C(=O)O)cn4c3c2SCC4)CC1
4. Cn1c(=O)c2[nH]cnc2n(C)c1=O
5. CNC[C@H](O)c1cccc(O)c1
6. Cc1ccc(=O)n(-c2ccccc2)c1

> 30 µM
> 30 µM
> 30 µM
> 10 µM
> 10 µM
> 30 µM

====

- TARGET OR TEST SYSTEM: Estrogen receptor (Homo sapiens); further: assay procedure not described here
- Sequence (P03372 whole entry): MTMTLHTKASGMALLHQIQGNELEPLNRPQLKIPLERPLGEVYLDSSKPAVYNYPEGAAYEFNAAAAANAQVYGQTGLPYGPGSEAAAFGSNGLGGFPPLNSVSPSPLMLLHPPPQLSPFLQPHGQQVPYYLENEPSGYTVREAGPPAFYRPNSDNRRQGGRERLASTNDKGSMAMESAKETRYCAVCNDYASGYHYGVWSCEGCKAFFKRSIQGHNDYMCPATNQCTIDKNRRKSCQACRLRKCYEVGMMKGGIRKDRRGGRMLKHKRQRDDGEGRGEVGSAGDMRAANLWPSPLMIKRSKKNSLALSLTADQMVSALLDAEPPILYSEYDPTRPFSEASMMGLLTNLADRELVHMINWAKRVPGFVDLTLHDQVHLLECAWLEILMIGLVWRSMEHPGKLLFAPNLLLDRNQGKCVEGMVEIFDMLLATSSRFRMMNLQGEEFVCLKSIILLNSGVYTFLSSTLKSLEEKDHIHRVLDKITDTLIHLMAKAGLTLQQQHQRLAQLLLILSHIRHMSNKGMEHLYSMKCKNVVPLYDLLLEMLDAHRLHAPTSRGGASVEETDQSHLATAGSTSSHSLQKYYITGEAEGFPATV
- Assay type: functional
Kindly supply the reported AC50 values for the records listed here.

Complete the entry with AC50 for CCCN(CCc1cccs1)[C@H]1CCc2c(O)cccc2C1 [ROTIGOTINE]
> 30 µM

Complete the entry with AC50 for C#Cc1cccc(Nc2ncnc3cc(OCCOC)c(OCCOC)cc23)c1 [ERLOTINIB]
> 30 µM

Respectfully, I request AC50 for each entry included below.
1. C=C(C)[C@@H]1CCC(C)=C[C@H]1c1c(O)cc(CCCCC)cc1O [CANNABIDIOL]
2. CC[C@H]1OC(=O)[C@H](C)[C@@H](O[C@H]2C[C@@](C)(OC)[C@@H](O)[C@H](C)O2)[C@H](C)[C@@H](O[C@@H]2O[C@H](C)C[C@H](N(C)C)[C@H]2O)[C@](C)(O)C[C@@H](C)/C(=N\OCOCCOC)[C@H](C)[C@@H](O)[C@]1(C)O [ROXITHROMYCIN]

1. > 30 µM
2. > 30 µM

====

- TARGET OR TEST SYSTEM: Progesterone receptor (Homo sapiens); further: assay procedure not described here
- Sequence (P06401 whole entry): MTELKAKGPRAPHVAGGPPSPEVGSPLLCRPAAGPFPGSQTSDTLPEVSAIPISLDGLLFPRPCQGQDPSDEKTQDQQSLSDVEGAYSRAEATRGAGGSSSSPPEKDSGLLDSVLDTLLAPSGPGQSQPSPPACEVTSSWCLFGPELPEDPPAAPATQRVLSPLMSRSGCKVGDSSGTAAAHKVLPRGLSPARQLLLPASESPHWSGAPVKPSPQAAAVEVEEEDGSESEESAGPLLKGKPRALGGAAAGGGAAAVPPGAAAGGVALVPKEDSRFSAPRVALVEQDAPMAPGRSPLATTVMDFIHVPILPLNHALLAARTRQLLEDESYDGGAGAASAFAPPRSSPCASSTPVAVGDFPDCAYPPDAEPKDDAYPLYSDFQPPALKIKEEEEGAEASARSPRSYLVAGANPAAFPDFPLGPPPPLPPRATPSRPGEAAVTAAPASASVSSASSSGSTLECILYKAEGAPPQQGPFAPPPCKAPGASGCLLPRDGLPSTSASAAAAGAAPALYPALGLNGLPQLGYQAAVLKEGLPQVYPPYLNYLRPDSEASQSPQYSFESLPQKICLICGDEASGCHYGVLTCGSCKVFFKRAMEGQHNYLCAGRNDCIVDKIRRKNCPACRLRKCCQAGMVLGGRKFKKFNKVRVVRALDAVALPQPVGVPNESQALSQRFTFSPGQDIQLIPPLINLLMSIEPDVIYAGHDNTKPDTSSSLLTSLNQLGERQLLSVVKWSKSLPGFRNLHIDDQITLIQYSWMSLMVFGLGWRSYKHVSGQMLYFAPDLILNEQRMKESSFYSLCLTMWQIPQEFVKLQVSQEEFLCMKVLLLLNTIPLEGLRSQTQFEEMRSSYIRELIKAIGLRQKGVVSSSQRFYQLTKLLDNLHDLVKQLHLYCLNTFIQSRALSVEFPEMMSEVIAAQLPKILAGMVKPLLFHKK
- Format: functional
Kindly supply the reported AC50 values for the records listed here.

Below, 7 compounds whose answers are already recorded.
Complete the entry with AC50 for CC(C)OC(=O)C(C(=O)OC(C)C)=C1SC=CS1 [MALOTILATE]
> 30 µM

Complete the entry with AC50 for `CC1(C)S[C@@H]2[C@H](NC(=O)[C@H](N)c3ccc(O)cc3)C(=O)N2[C@H]1C(=O)O`
> 30 µM

Complete the entry with AC50 for CCN(CC)C(=O)C1CN2CCc3cc(OC)c(OC)cc3C2CC1OC(C)=O (stereo not drawn) [BENZQUINAMIDE]
> 30 µM

Complete the entry with AC50 for `CNC(=O)Oc1ccc2c(c1)[C@]1(C)CCN(C)[C@@H]1N2C`
> 30 µM

Complete the entry with AC50 for `CO[C@@]1(NC(=O)Cc2cccs2)C(=O)N2C(C(=O)O)=C(COC(N)=O)CS[C@@H]21`
> 30 µM

Complete the entry with AC50 for CC1(C)O[C@@H]2C[C@H]3[C@@H]4C[C@H](F)C5=CC(=O)C=C[C@]5(C)[C@H]4[C@@H](O)C[C@]3(C)[C@]2(C(=O)CO)O1 [FLUNISOLIDE]
> 3 µM

Complete the entry with AC50 for `[H]/N=C(\N/C(=N/[H])NCCCCCCNC(=N)NC(=N)Nc1ccc(Cl)cc1)Nc1ccc(Cl)cc1`
21.9 µM

Turning to the following compound.
Complete the entry with AC50 for `O=C(CCCN1CCC2(CC1)C(=O)NCN2c1ccccc1)c1ccc(F)cc1`
> 30 µM
